# TARGET ENTITY: Peroxisomal membrane protein PEX14 (Homo sapiens, UniProt O75381)
# Sequence (O75381 whole entry, change not shown, the tested form may be a part): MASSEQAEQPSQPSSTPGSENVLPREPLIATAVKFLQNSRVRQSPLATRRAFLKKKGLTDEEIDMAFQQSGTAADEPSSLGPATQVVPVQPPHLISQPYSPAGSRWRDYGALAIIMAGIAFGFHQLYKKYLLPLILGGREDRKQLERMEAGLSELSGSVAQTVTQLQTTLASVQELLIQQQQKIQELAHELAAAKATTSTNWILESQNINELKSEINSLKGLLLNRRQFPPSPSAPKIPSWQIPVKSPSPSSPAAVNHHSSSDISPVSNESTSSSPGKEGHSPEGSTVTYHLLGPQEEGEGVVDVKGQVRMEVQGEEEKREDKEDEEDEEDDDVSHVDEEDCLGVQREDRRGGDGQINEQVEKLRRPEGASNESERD
# PROCEDURE TEXT: Inhibition of biotinylated PEX5-derived ALSENWAQEFLA binding to human N-terminal His-tagged PEX14 (21 to 84 residues) expressed in Escherichia coli BL21 by Alphascreen assay
pEC50: −log10 of the molar value.
ASSAY METRIC: pEC50

Below, 2 compounds whose answers are already recorded.
{"columns": ["STRUCTURE AS SMILES", "ASSAY METRIC", "READOUT VALUE"],
 "data": [
  ["COc1ccc(CN2CCc3nn4c(c3C2)CN(Cc2cccc3ccccc23)C4=O)c2ccccc12", "pEC50", "< 3.00"],
  ["COc1ccc(CN2CCc3c(c(C(=O)NCc4cccc5ccccc45)nn3CCN3CCOCC3)C2)c2ccccc12", "pEC50", 3.78]
]}

// moving on: another record for pEC50
-- ask Can you look up the measured pEC50 of `COc1ccc(CN2CCc3nn4c(c3C2)C(=O)N(Cc2cccc3ccccc23)CC4)c2ccccc12` for me?
-- reply < 3.00

----------
# PROCEDURE TEXT: Inhibition of biotinylated PEX5-derived ALSENWAQEFLA binding to Trypanosoma cruzi N-terminal His-tagged PEX14 (21 to 84 residues) expressed in Escherichia coli BL21 by Alphascreen assay
Items are presented alongside their recorded pEC50.
Scale explanation: pEC50 corresponds to minus log10 of a concentration expressed in moles per litre.

Below, 2 molecules whose answers are already recorded.
{"columns": ["STRUCTURE AS SMILES", "READOUT VALUE"],
 "data": [
  ["COc1ccc(CN2CCc3nn4c(c3C2)CN(Cc2cccc3ccccc23)C4=O)c2ccccc12", 3.35],
  ["COc1ccc(CN2CCc3nn4c(c3C2)C(=O)N(Cc2cccc3ccccc23)CC4)c2ccccc12", 3.33]
]}

// moving on: another record for pEC50
-- ask Can you look up the measured pEC50 of `COc1ccc(CN2CCc3c(c(C(=O)NCc4cccc5ccccc45)nn3CCN3CCOCC3)C2)c2ccccc12` for me?
-- reply 3.79
